- STUDY SYSTEM: Ebola GP ectodomain (Mayinga, Zaire, 1976) with the mucin-like domain deleted (Zaire ebolavirus (Mayinga, 1976), UniProt Q05320 33-650)
MEASURED PROPERTY: Kd

[
  {
    "BINDER": "mAb114 VH D42G-A68T-S79Y / VL V43A Fab (Fab, V domains shown) VH: EVQLVESGGGLIQPGGSLRLSCAASGFALRMYDMHWVRQTIGKRLEWVSAVGPSGDTYYADSVKGRFTVSRENAKNSLYLQMNSLTAGDTAIYYCVRSDRGVAGLFDSWGQGILVTVSS VL: DIQMTQSPSSLSASVGDRITITCRASQAFDNYVAWYQQRPGKAPKLLISAASALHAGVPSRFSGSGSGTHFTLTISSLQPEDVATYYCQNYNSAPLTFGGGTKVEIK",
    "RESULT": "0.06 nM"
  },
  {
    "BINDER": "mAb114 VL H70D Fab (Fab, V domains shown) VH: EVQLVESGGGLIQPGGSLRLSCAASGFALRMYDMHWVRQTIDKRLEWVSAVGPSGDTYYADSVKGRFAVSRENAKNSLSLQMNSLTAGDTAIYYCVRSDRGVAGLFDSWGQGILVTVSS VL: DIQMTQSPSSLSASVGDRITITCRASQAFDNYVAWYQQRPGKVPKLLISAASALHAGVPSRFSGSGSGTDFTLTISSLQPEDVATYYCQNYNSAPLTFGGGTKVEIK",
    "RESULT": "0.3 nM"
  },
  {
    "BINDER": "mAb114 VL V43A Fab (Fab, V domains shown) VH: EVQLVESGGGLIQPGGSLRLSCAASGFALRMYDMHWVRQTIDKRLEWVSAVGPSGDTYYADSVKGRFAVSRENAKNSLSLQMNSLTAGDTAIYYCVRSDRGVAGLFDSWGQGILVTVSS VL: DIQMTQSPSSLSASVGDRITITCRASQAFDNYVAWYQQRPGKAPKLLISAASALHAGVPSRFSGSGSGTHFTLTISSLQPEDVATYYCQNYNSAPLTFGGGTKVEIK",
    "RESULT": "0.07 nM"
  },
  {
    "BINDER": "mAb114 VL S49Y Fab (Fab, V domains shown) VH: EVQLVESGGGLIQPGGSLRLSCAASGFALRMYDMHWVRQTIDKRLEWVSAVGPSGDTYYADSVKGRFAVSRENAKNSLSLQMNSLTAGDTAIYYCVRSDRGVAGLFDSWGQGILVTVSS VL: DIQMTQSPSSLSASVGDRITITCRASQAFDNYVAWYQQRPGKVPKLLIYAASALHAGVPSRFSGSGSGTHFTLTISSLQPEDVATYYCQNYNSAPLTFGGGTKVEIK",
    "RESULT": "0.6 nM"
  },
  {
    "BINDER": "mAb114 VH I113T Fab (Fab, V domains shown) VH: EVQLVESGGGLIQPGGSLRLSCAASGFALRMYDMHWVRQTIDKRLEWVSAVGPSGDTYYADSVKGRFAVSRENAKNSLSLQMNSLTAGDTAIYYCVRSDRGVAGLFDSWGQGTLVTVSS VL: DIQMTQSPSSLSASVGDRITITCRASQAFDNYVAWYQQRPGKVPKLLISAASALHAGVPSRFSGSGSGTHFTLTISSLQPEDVATYYCQNYNSAPLTFGGGTKVEIK",
    "RESULT": "0.07 nM"
  }
]
